SYSTEM_UNDER_TEST: AAK1 (full length human, NCBI accession no. NP_055726.2) (Homo sapiens)
Sequence (Q2M2I8 1-863 isoform Q2M2I8-2): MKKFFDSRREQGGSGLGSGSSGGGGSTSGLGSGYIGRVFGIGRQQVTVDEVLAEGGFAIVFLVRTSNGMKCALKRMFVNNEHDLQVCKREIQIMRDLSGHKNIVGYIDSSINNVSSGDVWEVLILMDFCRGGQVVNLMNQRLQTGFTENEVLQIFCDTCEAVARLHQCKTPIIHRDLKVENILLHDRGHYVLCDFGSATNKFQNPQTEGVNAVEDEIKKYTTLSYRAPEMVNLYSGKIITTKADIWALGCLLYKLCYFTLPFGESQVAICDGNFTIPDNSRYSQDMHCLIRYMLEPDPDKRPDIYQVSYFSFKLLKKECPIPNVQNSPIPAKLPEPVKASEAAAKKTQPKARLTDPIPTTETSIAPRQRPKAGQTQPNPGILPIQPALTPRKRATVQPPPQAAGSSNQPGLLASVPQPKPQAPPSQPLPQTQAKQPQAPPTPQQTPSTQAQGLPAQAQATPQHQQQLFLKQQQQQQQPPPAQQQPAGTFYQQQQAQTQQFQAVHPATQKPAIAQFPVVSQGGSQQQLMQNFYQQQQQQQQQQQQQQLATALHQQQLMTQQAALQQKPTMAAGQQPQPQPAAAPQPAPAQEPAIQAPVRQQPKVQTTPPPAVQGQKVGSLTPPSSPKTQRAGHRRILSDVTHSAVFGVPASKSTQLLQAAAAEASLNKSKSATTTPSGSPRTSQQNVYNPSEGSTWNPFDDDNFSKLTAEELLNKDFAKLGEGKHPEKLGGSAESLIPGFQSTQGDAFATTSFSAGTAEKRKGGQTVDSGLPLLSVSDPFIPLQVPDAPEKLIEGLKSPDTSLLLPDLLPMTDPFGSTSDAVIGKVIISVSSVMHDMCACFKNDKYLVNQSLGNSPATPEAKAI
RUN_DESCRIPTION: HEK281 Cell-Based Assay (phospho-mu2 Western blot in HEK293F cells transfected with AAK1 and AP2M1)
Set-up: HA; expressed in transfected cells; host or cells: HEK293F
EXPERIMENTAL_SETUP: 3 hours incubation, read-out: HEK281 cell-based assay IC50 (inhibition of mu2 phosphorylation)
RECORDED_METRIC: IC50 (nM)

SMILES_ENTRY	RECORDED_METRIC	VAL
COc1ncccc1-c1cnn2ccc(N3CCN(C(=O)OC4(C)COC4)CC3)nc12	IC50	4.7

Just for reference, patent US9682982B2 is where these values come from.
